Hi there, I'd appreciate the recorded pKd for every entry that follows.
Target: T1, IFN-α4a (human, UniProt P05014 24-189)
T1 construct: Recombinant, HEK293; also called IFN-αM1
Experiment: ProteOn SPR, cell supernatant;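 also: each binding measurement used just a single antigen concentration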
Note on pKd: it is the negative log10 of concentration, concentration in mol/L.

Query :: Look up pKd for this binder: IFWM3397 (antibody, IgG1, V domains shown, mAb; IgG1/kappa said of the parent and of selected mAbs; also called IFWB3132) VH: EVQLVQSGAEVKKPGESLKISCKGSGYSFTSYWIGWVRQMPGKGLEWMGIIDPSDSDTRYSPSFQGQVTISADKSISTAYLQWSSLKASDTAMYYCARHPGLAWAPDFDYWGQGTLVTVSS VL: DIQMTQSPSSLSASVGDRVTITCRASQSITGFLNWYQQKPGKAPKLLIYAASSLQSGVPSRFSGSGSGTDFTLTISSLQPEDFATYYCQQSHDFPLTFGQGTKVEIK
Result :: 9.92

Query :: Look up pKd for this binder: IFWM3371 (antibody, IgG1, V domains shown, mAb; IgG1/kappa said of the parent and of selected mAbs; also called IFWB3106) VH: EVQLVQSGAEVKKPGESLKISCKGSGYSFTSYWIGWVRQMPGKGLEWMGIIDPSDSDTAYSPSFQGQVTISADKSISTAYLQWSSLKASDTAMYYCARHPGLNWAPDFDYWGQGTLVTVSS VL: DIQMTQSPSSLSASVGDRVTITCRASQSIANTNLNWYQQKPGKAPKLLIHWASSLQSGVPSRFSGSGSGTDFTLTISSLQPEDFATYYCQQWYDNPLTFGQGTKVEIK
Result :: 10.00

Query :: Look up pKd for this binder: IFWM3377 (antibody, IgG1, V domains shown, mAb; IgG1/kappa said of the parent and of selected mAbs; also called IFWB3112) VH: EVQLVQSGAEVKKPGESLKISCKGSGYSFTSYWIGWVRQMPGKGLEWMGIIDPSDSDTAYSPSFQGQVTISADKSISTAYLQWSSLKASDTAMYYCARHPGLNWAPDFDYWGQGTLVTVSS VL: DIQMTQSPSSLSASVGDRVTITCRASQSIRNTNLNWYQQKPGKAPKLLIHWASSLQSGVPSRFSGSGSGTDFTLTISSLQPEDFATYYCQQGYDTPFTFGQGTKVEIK
Result :: 9.71
